Molecular target: UniProt:O00519
Sequence (O00519 whole entry): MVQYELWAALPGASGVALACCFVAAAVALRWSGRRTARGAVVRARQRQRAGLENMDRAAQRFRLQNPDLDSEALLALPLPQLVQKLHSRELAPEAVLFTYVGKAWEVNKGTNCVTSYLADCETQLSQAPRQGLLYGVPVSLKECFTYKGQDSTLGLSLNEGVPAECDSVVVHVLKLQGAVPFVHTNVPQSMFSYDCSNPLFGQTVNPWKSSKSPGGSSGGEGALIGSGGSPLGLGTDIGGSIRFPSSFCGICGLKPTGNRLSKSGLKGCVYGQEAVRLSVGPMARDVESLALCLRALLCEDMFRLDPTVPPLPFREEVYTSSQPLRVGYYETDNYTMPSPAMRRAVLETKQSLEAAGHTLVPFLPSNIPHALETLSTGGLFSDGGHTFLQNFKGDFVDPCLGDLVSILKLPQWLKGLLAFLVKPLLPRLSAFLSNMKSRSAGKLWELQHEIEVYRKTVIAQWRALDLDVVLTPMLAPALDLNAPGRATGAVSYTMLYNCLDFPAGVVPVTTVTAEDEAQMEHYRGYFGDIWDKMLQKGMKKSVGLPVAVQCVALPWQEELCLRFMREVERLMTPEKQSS
Assay: Apparent inhibition of human FAAH expressed in CHOK1 cells using AMCAA as substrate after 30 mins by fluorescence assay
Format: cell-based, CHO-K1
measured.attribute: IC50 (nM)

[
  {
    "structure.smiles.string": "O=C(Nc1cccnn1)N1CCN(c2cccc(-c3ccc(F)cc3F)n2)CC1",
    "target.system": "UniProt:O00519",
    "measured.attribute": "IC50",
    "value": 36
  }
]

A = O=C(Nc1cccnn1)N1CCN(c2nccc(-c3cc(F)ccc3F)n2)CC1
B = O=C(Nc1cccnn1)N1CCN(c2cc(-c3ccc(F)cc3F)ncn2)CC1
C = O=C(Nc1cccnn1)N1CCN(c2ccnc(-c3ccc(F)cc3F)c2)CC1
Q. Arrange by IC50, high to low. Please list the labels in the order you were asked to rank them.
A. C, B, A
(C: 28 nM, B: 1.5 nM, A: 0.025 nM)

P = O=C(Nc1cccnn1)N1CCN(c2nccc(-c3cc(F)cc(F)c3)n2)CC1
Q = O=C(Nc1cccnn1)N1CCN(c2nccc(-c3ccc(F)cc3F)n2)CC1
Q. Min IC50? P | Q Write down the label attached to your selection.
A. P
(P: 0.08 nM, Q: 1.1 nM)

P = O=C(Nc1cccnn1)N1CCN(c2ccnc(-c3ccc(F)cc3F)n2)CC1
Q = O=C(Nc1cccnn1)N1CCN(c2cc(-c3ccc(F)cc3F)ccn2)CC1
Q. Min IC50? P | Q Write down the label attached to your selection.
A. Q
(Q: 2.2 nM, P: 23 nM)

P = O=C(Nc1cccnn1)N1CCN(c2cncc(-c3ccc(F)cc3F)c2)CC1
Q = O=C(Nc1cccnn1)N1CCN(c2nccc(-c3cccc(F)c3F)n2)CC1
R = O=C(Nc1cccnn1)N1CCN(c2nccc(-c3ccc(F)c(F)c3)n2)CC1
Q. rank_up(items): orders items by reported IC50 in ascending numerical order. Please list the labels in the order you were asked to rank them.
A. Q, R, P
(Q: 0.072 nM, R: 0.72 nM, P: 140 nM)

###

assay: Ratio of drug level in brain to plasma in rat at 3 mg/kg, po; type: ADME, organism-based; design: dose 3 mg/kg, route oral; conditions: read-out: BPR
measured.attribute: Kp
Please reply with the value in numeric form only.

Q. Requested field: Kp. Item: O=C(Nc1cccnn1)N1CCN(c2nccc(-c3ccc(F)c(F)c3)n2)CC1
A. 2
